Exercise: for every item that follows, state its recorded protein stability index.
B1: STX5 (parent)
chain: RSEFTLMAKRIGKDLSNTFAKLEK

- Variants of: B1
- PROCEDURE_SUMMARY: protein stability index of a GFP-peptide fusion (GPS, HEK-293T) (PSI 1-6); higher = more stable;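 note: lentivirally expressed fusions sorted by FACS into six bins by GFP to DsRed ratio, PSI derived from sequencing read proportions per bin multiplied by bin number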
- MEASUREMENT_PARAMETERS: c terminus: a fixed tail appended
One number for each entry.

MUTATION_LABEL	ENDPOINT_NAME	RECORDED_VALUE
S16I	protein stability index	3.35
K9W	protein stability index	1.97
K13E	protein stability index	2.34
K21Y	protein stability index	1.45

Give me protein stability index for each of these variants, listed below.
1. M7V
2. N17Q
3. L15N
4. N17W
5. K24T
6. A20E
7. K9T
8. A20V

Completion:
1. 2.73
2. 1.61
3. 3.79
4. 1.81
5. 3.14
6. 1.58
7. 2.06
8. 2.24

Look up protein stability index for the entries below, preserving their order.
1. N17L
2. L15E
3. M7S
4. R1I
5. T5I
6. S2C
7. L22T
8. G12P

Completion:
[2.21, 3.89, 3.12, 1.92, 2.62, 3.2, 2.7, 3.81]

Record protein stability index for all entries; do not skip any.
1. R1S
2. K24N
3. K21H
4. F19E
5. A8D
6. K9C
7. A8S
8. K24H

Completion:
2.54
3.22
2.51
4.74
3.02
2.1
2.1
2.46

Quick request: protein stability index for each listed item, please.
1. S2N
2. E3Y
3. L15T
4. L6I

Completion:
1. 1.03
2. 2.51
3. 3.27
4. 3.08
